System tested: CD82 (mouse) (mouse, UniProt P40237)
Measurement description: IP with anti CD82 antibodies, mouse muscle tissue, mass spectrometry
The following binders are shown together with reported Unique values.
API note: the answer field is a bare number with no unit suffix.

Take a look at these entries with their results.
ALDOA_MOUSE (enzyme) PHPYPALTPEQKKELSDIAHRIVAPGKGILAADESTGSIAKRLQSIGTENTEENRRFYRQLLLTADDRVNPCIGGVILFHETLYQKADDGRPFPQVIKSKGGVVGIKVDKGVVPLAGTNGETTTQGLDGLSERCAQYKKDGADFAKWRCVLKIGEHTPSALAIMENANVLARYASICQQNGIVPIVEPEILPDGDHDLKRCQYVTEKVLAAVYKALSDHHVYLEGTLLKPNMVTPGHACTQKFSNEEIAMATVTALRRTVPPAVTGVTFLSGGQSEEEASINLNAINKCPLLKPWALTFSYGRALQASALKAWGGKKENLKAAQEEYIKRALANSLACQGKYTPSGQSGAAASESLFISNHAY | 3
Annexin 2 (mouse) (other) STVHEILCKLSLEGDHSTPPSAYGSVKPYTNFDAERDALNIETAVKTKGVDEVTIVNILTNRSNVQRQDIAFAYQRRTKKELPSALKSALSGHLETVILGLLKTPAQYDASELKASMKGLGTDEDSLIEIICSRTNQELQEINRVYKEMYKTDLEKDIISDTSGDFRKLMVALAKGRRAEDGSVIDYELIDQDARELYDAGVKRKGTDVPKWISIMTERSVCHLQKVFERYKSYSPYDMLESIKKEVKGDLENAFLNLVQCIQNKPLYFADRLYDSMKGKGTRDKVLIRIMVSRSEVDMLKIRSEFKRKYGKSLYYYIQQDTKGDYQKALLYLCGGDD | 1
FBX50_MOUSE (other) MEKTQDRDTLSGRMEAEGSLNSEELPPHPQSPPPPPSPRSPTSPVTPELPQPNAPTEVEARQLLVEEWGPLSGKLELPPRISWQLLFLERPLYRNLLSSPNPEGINIYQPAPPTGPTRKPLKELGNFRGWYITTQNLQGPLSWTVKEQCVNLLAKKLWEELLDDEQPDITIMDWFEDSRLDQCVYELHVWLLAADRRTVIAQHHVAPRTNGRGPPGRWIQVSHVFRQYGPGVRFVYFQHKAKNRMEPGGLRRTRVTDSSVSVQLRE | 2
Annexin 1 (mouse) (other) AMVSEFLKQARFLENQEQEYVQAVKSYKGGPGSAVSPYPSFNVSSDVAALHKAIMVKGVDEATIIDILTKRTNAQRQQIKAAYLQENGKPLDEVLRKALTGHLEEVVLAMLKTPAQFDADELRGAMKGLGTDEDTLIEILTTRSNEQIREINRVYREELKRDLAKDITSDTSGDFRKALLALAKGDRCQDLSVNQDLADTDARALYEAGERRKGTDVNVFTTILTSRSFPHLRRVFQNYGKYSQHDMNKALDLELKGDIEKCLTTIVKCATSTPAFFAEKLYEAMKGAGTRHKALIRIMVSRSEIDMNEIKVFYQKKYGISLCQAILDETKGDYEKILVALCGGN | 2

Please examine the following record next.
For IGHG_RABIT (other) GQPKAPSVFPLAPCCGDTPSSTVTLGCLVKGYLPEPVTVTWNSGTLTNGVRTFPSVRQSSGLYSLSSVVSVTSSSQPVTCNVAHPATNTKVDKTVAPSTCSKPTCPPPELLGGPSVFIFPPKPKDTLMISRTPEVTCVVVDVSQDDPEVQFTWYINNEQVRTARPPLREQQFNSTIRVVSTLPITHQDWLRGKEFKCKVHNKALPAPIEKTISKARGQPLEPKVYTMGPPREELSSRSVSLTCMINGFYPSDISVEWEKNGKAEDNYKTTPAVLDSDGSYFLYNKLSVPTSEWQRGDVFTCSVMHEALHNHYTQKSISRSPGK the binder record lists Unique as 7

These measurements were taken from patent US20220119489A1.
